Each recorded value in this set is attributed to PubChem BioAssay AID431.

# protocol_text: viability loss of HPDE-C7K cells – cell-based, fluorescence, HTS, primary screen (AID 431);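 further: 0% = DMSO solvent wells and 100% = doxorubicin-treated wells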
# stated_conditions: HPDE-C7K KRASV12 cells, Alamar Blue viability, 48 h; at 10 µM; active compounds read high
Screen size: about 63,000 compounds; about 1,100 (1.7%) were called active. Only a selection was taken, and actives are over-represented in it overall. Measured potencies and affinities stand elsewhere.
cytotoxicity overview
Return type: number; implicit unit %.

Consider the worked cases shown below.
Cc1n[nH]c(C)c1S(=O)(=O)N1CCN(C(=O)c2ccco2)CC1 :: 4
Cc1[nH]c2ccc(-c3nnc(SCC(=O)c4ccccc4F)o3)cc2c1C :: 78.5
CCN(CC(=O)NCc1cccs1)S(=O)(=O)c1cccc(C(C)=O)c1 :: -12.5
Cc1[nH]c2ccc(-c3nnc(SCC(=O)c4ccc(F)cc4)o3)cc2c1C :: -0.1
CCOC(=O)c1[nH]c(C)c(C(=O)Nc2ccc(C)c(F)c2)c1C :: 0.8
CCN(CC)S(=O)(=O)c1ccc(NC(=O)Cn2cnc3ccccc3c2=O)cc1 :: -6.7

Read the entry Cc1cc(C)cc(NC(=O)CSc2nc3c(c(=O)n2C)SC(C)C3)c1 (stereo unspecified) and write its reported cytotoxicity.
-5.2

Using known records, supply cytotoxicity for CCOCC(=O)Nc1nc2ccc(OCC)cc2s1
4.3

Specify measured cytotoxicity for Cc1cc(-c2[nH]nc3c2C(c2ccsc2)C(C#N)=C(N)O3)c(C)s1 (stereo unspecified) .
-9.2

Determine its reported cytotoxicity: Cc1ccc(NC(=O)NC2CCCCC2)cc1Cl
-4

Give cytotoxicity for COc1ccc(CCNS(=O)(=O)c2ccc3c(c2)OCCO3)cc1OC
-28.8

---

# protocol_text: viability loss of HPDE-C7K cells – cell-based, fluorescence, HTS, primary screen (AID 431);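 further: 0% = DMSO solvent wells and 100% = doxorubicin-treated wells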
# stated_conditions: HPDE-C7K KRASV12 cells, Alamar Blue viability, 48 h; at 10 µM; active compounds read high
Screen size: about 63,000 compounds; about 1,100 (1.7%) were called active. Many of the other results were omitted from the sample, so actives are more common in it than they were. Potency and affinity values are given separately.
Listed here are compounds together with their documented cytotoxicity.
Respond numerically; units are % and should not be typed.

# example entries with known answers
COc1ccc(Cl)cc1NC(=O)c1cccnc1 :: -1.6
CCN=C1SC(C(N)=O)CC(=O)N1CC (stereo not drawn) :: 0.6
C=CCn1c(=N)n(CC(=O)OC)c2ccccc21 :: 8.1
COc1ccc(-n2nnnc2S(=O)(=O)CC(=O)N2CCCCC2)cc1 :: 56.8
CC1(C(=O)NC2CCCC2)CCC(=O)N1CCC1=CCCCC1 (stereo not drawn) :: -21.1

Specify reported cytotoxicity for the compound shown: Cc1nn2c(N3CCN(C(=O)c4ccco4)CC3)cc(C(C)(C)C)nc2c1-c1ccccc1
70.2

Return cytotoxicity (reported value) for this compound: COc1ccccc1NC(=O)Nc1ccc2c(c1)OCCO2
-11.4

Respond only with cytotoxicity recorded for CCC(C)(C)NC(=O)C(c1cccn1C)N(Cc1ccccc1)C(=O)Cn1nnc2ccccc21 (stereo not drawn)
-4.3

For the compound COc1ccc(C2NC(=O)NC(C)=C2C(=O)Nc2cc(C)ccc2C)cc1OC (stereo not drawn) , give its reported cytotoxicity.
1.2

Consider the compound COc1ccc(-n2nnnc2S(=O)(=O)Cc2ccc(C(=O)O)cc2)cc1 and give its recorded cytotoxicity.
2.6

Query cytotoxicity for COc1cc(OC)cc(-n2nnnc2SCC(=O)N2CCCC2)c1
-16

Output measured cytotoxicity for this item: CCC(C)[C@H](NC(=O)NCc1cccs1)C(=O)OC (stereo partly drawn)
7.9

Please give the documented cytotoxicity of CSc1nc(N)nc(SCC(=O)c2ccc(C)cc2)c1C#N
-1
